System: CAKI-1
assay: NCI tumour cell line growth inhibition, 48 h
The source made the active and inactive calls. Rule as the data show it: active = GI50 up to about 1.1 µM and inactive = higher.
measuredParameter: GI50

compound	measuredParameter	result
CS(=O)(=O)OCCN(CCOS(C)(=O)=O)c1ccc(/C=N/c2cccc(Cl)c2)cc1	GI50	0.239 µM (active)
CC(C)(C)NNC(=O)/C(=C/c1ccc([N+](=O)[O-])cc1)NC(=O)c1ccccc1	GI50	> 100 µM (inactive)
COC(=O)C1=C(CCCCO[Si](C)(C)C(C)(C)C)NC(=O)N2[C@@H](CCOCc3ccccc3)CC[C@H]12	GI50	16.8 µM (inactive)
O=c1[nH]cc(F)c(=O)n1C1OC(CO)C(O)C1O (stereo not given)	GI50	> 100 µM (inactive)

Record `Cc1nc(/C(=N\n2cnnc2)Nc2ccc(Br)cc2)no1` . Reported GI50: > 100 µM (inactive)

###

Tested on: HT-29
assay: NCI tumour cell line growth inhibition, 48 h
The source made the active and inactive calls. No stated cut-off is given here; in the data, active = GI50 up to about 1.1 µM and inactive = higher.
measuredParameter: GI50

molecule	measuredParameter	result
COc1cccc(-c2c(C#N)c(N)nc3c2CCS(=O)(=O)c2ccc(C)cc2-3)c1	GI50	> 100 µM (inactive)
O=C1O/C(=C\c2ccc(O)cc2)C(c2ccc(O)c(Cl)c2)=C1Cl	GI50	53.2 µM (inactive)
O=C1N=C(c2ccccc2)O/C1=C\c1ccccc1	GI50	> 100 µM (inactive)
CC(C)/C(Cl)=N/OC(=O)Nc1cccc(C(F)(F)F)c1	GI50	4.98 µM (inactive)
CCOC(=O)C(=C=Cc1cccs1)C(=O)c1ccccc1	GI50	19.4 µM (inactive)
C=C(C)[C@@H]1C[C@H]2O[C@](O)(C(=C)CC(=O)/C=C(/C)C[C@@H]3OC(=O)[C@]24O[C@@H]34)[C@H]1O	GI50	> 100 µM (inactive)

Sample `CN(C)Cc1c(O)ccc2c1c1c(n2C)C(=O)c2ccccc2C1=O` , system: HT-29. Its GI50 is 1.4 µM (inactive)

Sample CCCC(=O)OC1CC(n2cc(F)c(=O)[nH]c2=O)OC1COP(=O)(OCC(Cl)(Cl)Cl)OCC(Cl)(Cl)Cl (stereo unspecified) , system: HT-29. Its GI50 is 13.7 µM (inactive)

Sample N#CC1CC2(C(=O)C1=O)c1ccccc1-c1ccccc12 (stereo unspecified) , system: HT-29. Its GI50 is > 100 µM (inactive)

Sample `CCCc1cn2c(/C=N/N=C(N)N)c(-c3c(OC)ccc(OC)c3[N+](=O)[O-])nc2s1` , system: HT-29. Its GI50 is 4.06 µM (inactive)

Sample `S=C(N1CCN(c2ccc(Cl)c(Cl)c2)CC1)N1CCN(c2ccc(Cl)c(Cl)c2)CC1` , system: HT-29. Its GI50 is 9.42 µM (inactive)

###

Tested on: EKVX
assay: NCI tumour cell line growth inhibition, 48 h
Calls of active or inactive are those of the source. Cut-off read from the data, not from the text of the source: active = GI50 up to about 1.1 µM and inactive = higher.
Some molecules, each annotated with its measured GI50.

molecule	GI50
COC(=O)C1=C(O)C(O)=C(C(=O)OC)CC1	> 100 µM (inactive)
O=Cc1ccc2c(c1)CC1(Cc3ccccc3C1)C2	15.3 µM (inactive)
CCCCCCCCCCCCCCCCCCNC(=S)NC=C1C(=O)c2ccccc2C1=O	13 µM (inactive)

Record `COC(=O)C1=C(CCCCO[Si](C)(C)C(C)(C)C)NC(=O)N2[C@@H](CCOCc3ccccc3)CC[C@H]12` . Reported GI50: 15.8 µM (inactive)

###

Tested on: HT-29
assay: NCI tumour cell line growth inhibition, 48 h
Active and inactive are the calls of the source. No stated cut-off is given here; in the data, active = GI50 up to about 1.1 µM and inactive = higher.
Tick one outcome: active, inactive

Record excerpt, results attached:
compound	assignedClass
COc1cccc(CCn2c(N)c(-c3cc(Cl)cc(Cl)c3)c3ccc([N+](=O)[O-])cc3c2=O)c1	inactive
COc1cc(C(=O)N(Cc2cccnc2)C(=S)N(Cc2cccnc2)C(=O)c2cc(OC)c(OC)c(OC)c2)cc(OC)c1OC	inactive
O=[N+]([O-])c1cccc(C2ON2C2CCCCC2)c1 (stereo unspecified)	inactive
Cc1nc(C)c(N2CCN([N+](=O)[O-])CC2)c(O)n1	inactive
CC(C)CC(O)P(=O)(O)O.NC1CCCCC1 (stereo unspecified)	inactive
Cc1cc(C)c2nccc(NCCCN(C)C)c2c1[N+](=O)[O-]	inactive

State the result this test recorded for `CCN(CC)Cc1cc(Nc2c3ccccc3nc3c2[nH]c2ccccc23)ccc1O` .
active

State the result this test recorded for CC(C)(C)OC(=O)NCCCCC(N)C(N)=O (stereo unspecified) .
inactive

###

Some compounds, each annotated with its measured GI50.
System: UACC-257
assay: NCI tumour cell line growth inhibition, 48 h
Activity calls are given as the source filed them. Cut-off read from the data, not from the text of the source: active = GI50 up to about 1.1 µM and inactive = higher.

Some compounds with recorded GI50:
compound	result
C=C[C@@]1(C)CC2(C=C(CO)C(O)O2)Oc2c1c(=O)oc1cccc(C)c21 (stereo not given in full)	14.7 µM (inactive)
C[N+](C)(CCCn1ccnc1[N+](=O)[O-])CCCn1ccnc1[N+](=O)[O-]	> 100 µM (inactive)
S=c1[nH]n2c(CCCCCCCCc3nnc4sc(=S)[nH]n34)nnc2s1	> 100 µM (inactive)
CC(=O)/C(=C/n1c(=S)sc2ccccc21)C(=O)Nc1ccccc1C	> 100 µM (inactive)
NCCCCCC(CCN)SCC1OC(n2cnc3c(N)ncnc32)C(O)C1O (stereo not given)	> 1260 µM (inactive)

Record Cc1ccc(S(=O)(=O)NC(CN)C(=O)O)cc1 (stereo not given) . Reported GI50: > 100 µM (inactive)

Record Cc1cc2c(cc1C)NC(=O)C(NC(=O)/C=C/c1ccccc1)C=N2 (stereo not given) . Reported GI50: 24.3 µM (inactive)

Record `C=CCc1cc(-c2cc(CC=C)c(O)c(CNC)c2)cc(CNC)c1O` . Reported GI50: 16 µM (inactive)

Record `COC(=O)n1c(=O)n(-c2ccccc2)c(=O)n1C(=O)OC` . Reported GI50: > 100 µM (inactive)

Record CC(=O)O[C@H]1CCc2c(cc(N)c3c2C(=O)C[C@]2(C)C([C@H](C)CCCC(C)C)CCC32C)C1(C)C (stereo not given in full) . Reported GI50: 85.7 µM (inactive)

###

System: HCC 2998
assay: NCI tumour cell line growth inhibition, 48 h
Activity calls are given as the source filed them. No stated cut-off is given here; in the data, active = GI50 up to about 1.1 µM and inactive = higher. Where a SMILES comes first, the peptide text is derived from it. [ ]: non-standard residue; d: D form. Hiv = CC(C)[C@H](O)C(=O)O
Tick one outcome: 1.0 (active), 0.0 (inactive)

Record excerpt, results attached:
compound	assignedClass
C[C@@H]1C[C@H](O)[C@]2(O)O[C@@H]3C[C@@]4(C=O)[C@@H](CC=C5[C@@H]4CC[C@]4(C)[C@@H](C6=CC(=O)OC6)CC[C@]54O)C[C@H]3O[C@@H]2O1	1.0
Cc1ccc2c3c1O[C@H]1c4[nH]c5ccccc5c4C[C@@]4(O)[C@@H](C2)N(CC2CC2)CC[C@]314	0.0
N#CC1=C(c2ccccc2)OC2(N)OC(c3ccccc3)=C(C#N)C12C#N (stereo not drawn)	0.0
CCc1cccc(CC)c1NC(=O)C1=C(C)NC(C)=C(C(=O)Nc2c(CC)cccc2CC)C1c1ccc2c(c1)OCO2	0.0
S=c1[nH]n2c(CCCCCCCCc3nnc4sc(=S)[nH]n34)nnc2s1	0.0
N#Cc1ccccc1NC(=O)C(=O)C(C(=O)c1ccncc1)C1OC(=O)c2ccccc21 (stereo not drawn)	0.0
CC(C)CC(O)P(=O)(O)O.NC1CCCCC1 (stereo not drawn)	0.0
CC(C)/C(Cl)=N/OC(=O)Nc1cccc(C(F)(F)F)c1	0.0

State the result this test recorded for `CCOC(=O)c1sc2[n+](c1C)C(=O)/C(=C/c1ccc([N+](=O)[O-])cc1)S2` .
0.0

State the result this test recorded for `COc1cc(C2C(C(=O)Nc3ccccc3)=C(C)NC(C)=C2C(=O)Nc2ccccc2)ccc1O` .
0.0

State the result this test recorded for `Cc1nc(C)c(N2CCN([N+](=O)[O-])CC2)c(O)n1` .
0.0

State the result this test recorded for [N-]=[N+]=NC(c1cn(C2CC(O)C(CO)O2)c(=O)[nH]c1=O)C(Br)Br (stereo not drawn) .
0.0

State the result this test recorded for `COc1cc2ccn3c4cc(OC)c(OC)cc4cc3c2cc1OC` .
0.0

State the result this test recorded for `COc1ccc(Nc2nc3c(N)cc(C(F)(F)F)cc3nc2-c2ccccc2)cc1` .
0.0

State the result this test recorded for `CC(=O)Nc1ccc2c(C)c3c(nc2n1)[nH]c1ccccc13` .
0.0

State the result this test recorded for CC(=O)O[C@@H]1CC[C@@]2(C)C(CC[C@H]3[C@@H]4CC[C@H]([C@H](C)CCc5nc6cc(C)ccc6[nH]5)[C@@]4(C)CC[C@@H]32)C1 (stereo partly drawn) .
0.0

State the result this test recorded for `CN1c2ccccc2C(=O)Nc2cnc(Cl)nc21` .
0.0

State the result this test recorded for CC(C)[C@@H]1OC(=O)[C@@H](C)NC(=O)[C@@H]2CCCN2C1=O (cyclo([Hiv]-Pro-[dA])) .
0.0

Reference for the values: ChEMBL document CHEMBL1201862
